Origin of the recorded values: PubChem BioAssay AID1159580

- Test Protocol: chemical genetic growth profiling, strain panel (AID 1159580);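 further: tested at 20 µM; growth read once vehicle control cultures reached saturation at 30 °C; lower values mean less growth of the strain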
- Conditions: S. cerevisiae deletion strains, growth OD, locus YER111C, strain swi4
In all, about 5,500 compounds went through this assay and about 2,000 (36%) were called active. Inconclusive results (about 18%) are left out. No stated cut-off is given here; in the data, active means normalized growth mostly below about 0.91 (no sharp cut-off); inconclusive means no clear call, values can overlap the other calls; inactive means mostly above about 0.92. The list shows a part of the results.
Outcome codes: active, inactive

{"columns": ["Molecule", "Label"],
 "data": [
  ["CN(C/C=C/C#CC(C)(C)C)Cc1cccc2ccccc12", "active"],
  ["NC1(C(=O)O)CC1", "inactive"],
  ["C[C@]12CCC3c4ccc(OC(=O)c5ccccc5)cc4CCC3C1CCC2=O (stereo partly specified)", "inactive"],
  ["COC(=O)[C@@H]1OC(=O)C2OC23[C@@]1(C)CCC1[C@]2(C)C(C[C@@H](O)[C@]13C)C(C)(C)[C@H](OC(C)=O)C[C@@H]2OC(C)=O (stereo partly specified)", "inactive"],
  ["CCCNC(=O)NS(=O)(=O)c1ccc(Cl)cc1", "inactive"],
  ["CC(=O)Oc1ccc2c(c1)CCC1C2CC[C@]2(C)C(=O)CCC12 (stereo partly specified)", "inactive"]
]}
